Entries and their TGI
system: HS 578T breast; test: NCI tumour cell line growth inhibition, 48 h

A selection of reference data follows.
COc1ccc(N=Nc2ccc3oc(=O)c(C(=O)Nc4ccc(Cl)cc4)cc3c2)cc1; > 10 µM
COc1ccc(/C=C/C(=O)c2cc3c(N)c(C(=O)Nc4ccccc4C)sc3nc2C)cc1; > 50 µM
C#Cc1cccc(Oc2ccc(NC(=O)CCl)cc2)c1; > 82.5 µM

Lookup: Give TGI only, for O=C(O)C1(Cc2ccc3c(c2)CCC3)Cc2ccccc2C1=O (stereo not given) , using HS 578T breast data.
Found: > 100 µM

Lookup: Given CC(C)(C)OC(=O)CN1CCc2c(sc3ncnc(N/N=C/c4cccc5ccccc45)c23)C1 , report its TGI on HS 578T breast.
Found: 16 µM

----------
tested on: SF-539 CNS; assay: NCI tumour cell line growth inhibition, 48 h
TEST_READOUT: TGI

Solved entries (count: 6):
CC1(C)CC(=O)c2c(nc(SSc3nc4c(c(-c5ccc(Br)cc5)c3C#N)C(=O)CC(C)(C)C4)c(C#N)c2-c2ccc(Br)cc2)C1; > 10 µM
COc1ccc2c(c1)CCC1=C/C(=N\NC(N)=O)CCC12C (stereo unspecified); > 10 µM
O=c1[nH]c(Nc2ccc(Cl)cc2)nc2nc[nH]c12; > 100 µM
COc1ccc(C(=O)COc2cccc(/C=C3\CSc4ccc(Cl)cc4C3=O)c2)cc1; 30.7 µM
Nc1cc(N2CCOCC2)nc(=O)n1-c1ccc(Cl)cc1; > 100 µM
C/C(N=Nc1nc2ccccc2[nH]1)=C1/C=CC=CN1O; > 100 µM

Lookup: For the compound Cc1ccc(NC(=O)C2C(=O)N(c3ccc(C)c(C)c3)C(=O)/C2=N\NC(N)=S)cc1C (stereo unspecified) , report TGI.
Found: > 100 µM

Lookup: Please report TGI for the following compound: CC1C=C[C@H](Sc2ccccc2)CC[C@@]1(C)O (stereo partly specified)
Found: > 100 µM

Lookup: Note TGI for the compound shown: O=C(Cn1c2ccc(Br)cc2c2nc3ccccc3nc21)N/N=C/c1ccccc1
Found: 53.6 µM

Lookup: Give a short answer stating reported TGI for O=C(O)Cn1c(=O)[nH]c(=O)c2[nH]cnc21 .
Found: > 100 µM

Lookup: Output measured TGI for this item: Cc1nc2cc(Nc3nc(Nc4ccc(F)cc4)nc(N4CCN(C)CC4)n3)ccc2n1Cc1ccccc1
Found: 3.13 µM

----------
system: U251 CNS
# valid calls are 1 (active), -1 (inactive); nothing else

Example cases with answers are listed next.
CNC(=O)OC1C(O[C@H]2C[C@H]3[C@@H]4CC=C5C[C@@H](O)CC[C@]5(C)[C@H]4CC[C@]3(C)[C@H]2[C@H](C)C(=O)CCC(C)C)OCC(O)C1OC1OCC(O)C(O)C1OC(=O)c1ccc(OC)cc1 (stereo partly drawn); 1
CCCCCCC#CC#Cc1cccc(=O)o1; -1

Lookup: Hi, sorry to bother you, what did the test record for CCCN1C(=O)CSC1=Nc1ccc2cc3ccc(N=C4SCC(=O)N4CCC)cc3nc2c1 ?
Found: -1

Lookup: I would be grateful if you could indicate the recorded call for COc1ccc(-c2nnc(N3CCN(C(=O)CN4CCN(c5ccc(Cl)cc5)CC4)CC3)nc2-c2ccc(OC)cc2)cc1 .
Found: -1

Lookup: Recorded call for O=[N+]([O-])[O-].O=[N+]([O-])[O-].[Au].[Au].c1ccc([P-]c2ccccc2)cc1.c1ccc([P-]c2ccccc2)cc1 ?
Found: -1

Lookup: Lab log entry: C#Cc1cccc(Oc2ccc(NC(=O)CCl)cc2)c1 — outcome as called in the assay?
Found: -1

Lookup: Recorded call for Oc1c(I)cc(-c2nc3ccccc3s2)cc1CN(Cc1ccccn1)Cc1ccccn1 ?
Found: 1

Lookup: Please indicate how the test categorized COC(=O)C1(C2CC/C(C)=C/CC/C(C)=C/CC[C@@]3(C)O[C@@H]3C2)CC1 (stereo partly drawn) .
Found: -1

----------
Recorded TGI values for a group of compounds are listed next.
tested on: HT29 colon; assay: NCI tumour cell line growth inhibition, 48 h

Observe how each entry below is paired with its result.
Cc1cc(C)n(C(=O)c2nn(-c3ccc(Cl)cc3)cc2O)n1; > 100 µM
O=C(O)c1cc(O)c2c(c1)C([C@@H]1c3cccc(O)c3C(=O)c3c(O)cc(C(=O)O)cc31)c1cccc(O)c1C2=O (stereo not given in full); > 100 µM
COC(=O)CCc1cccnc1/C=N/O; > 100 µM
CCCCCC(O)(CCCCC)CCCCCCCCC1=C(O)c2[nH]c(=O)ccc2C(=O)C1=O; 30.5 µM
Cn1nc2ccc3nccc(N(CCO)CCO)c3c2n1; > 100 µM
O=C1CCCCC(=O)Nc2ccccc2N1; > 100 µM
CC(=O)OC1CC[C@@]2(C)C(C1)CC(OC(C)=O)[C@@H]1C2CC(OC(C)=O)[C@]2(C)C(C(C)CC=C(c3ccc(Cl)cc3)c3ccc(Cl)cc3)CCC12 (stereo not given in full); > 100 µM
COC(=O)c1ccccc1NC(=O)C(=O)CC(=O)CC(c1ccccc1)c1c(O)c2ccccc2oc1=O (stereo not given); > 100 µM

Lookup: Respond only with TGI recorded for NC(=S)N1N=C(c2ccccc2O)CC1c1ccccc1 (stereo not given)
Found: 28.9 µM

Lookup: Name the recorded TGI of the item C/C1=C/C(=O)O[C@@H]2C[C@@H](CC[C@H](C)/C=C\C=C\CC1)O[C@@](OCCc1ccccc1)([C@@H]1CSC(=O)N1)C2 in your answer.
Found: > 15 µM

Lookup: For the compound CCSC1=N/C(=C/c2ccccc2O)C(=O)N1 , give its reported TGI.
Found: > 100 µM

Lookup: Look up and state reported TGI for Cc1sc(N)c(S(=O)(=O)c2ccccc2)c1C
Found: > 100 µM

Lookup: Using the record for O=C(NCCNCCNC(=O)C(F)(F)F)C(F)(F)F , state its measured TGI.
Found: > 100 µM

Lookup: Return TGI (reported value) for this compound: O=C(O)c1cscc1Cc1cccs1
Found: > 100 µM

----------
Listed below: TGI values for each entry.
system: K-562 leukemia; assay: NCI tumour cell line growth inhibition, 48 h

Consider the worked cases shown below.
C=C1CC2(CCCC3(CC(=C)C(=O)O3)C2(C)C)OC1=O (stereo unspecified); 13.7 µM
CCO/C(O)=C(/C(=N)N1CCCC1)C(=O)Nc1ccc(F)cc1; > 100 µM
CC(CN1CCN(CC(C)Nc2ccnc3cc(Cl)ccc23)CC1)Nc1ccnc2cc(Cl)ccc12 (stereo unspecified); > 100 µM

Lookup: Retrieve TGI measured for Cc1cnoc1NS(=O)(=O)c1ccc(Nc2nnc(/C=C/c3c(O)ccc4ccccc34)c(=O)n2N)cc1 and print it.
Found: 82.9 µM

Lookup: Give the measured TGI for N#Cc1c(N)nc2c(c1-c1ccc(Br)cc1)CSc1ccccc1-2
Found: > 100 µM

Lookup: Identify measured TGI corresponding to CCOP(=O)(OCC)[C@]12C[C@@H](C)C=C[C@H]1COC2=O
Found: > 100 µM

Lookup: Recall and state the measured TGI for CCCCCOC(=O)c1cc2cc(CCl)ccc2oc1=O .
Found: > 49.4 µM

Lookup: Entry O=C1c2ccccc2C(C2c3ccccc3C(=O)c3cc(Br)ccc32)c2ccc(Br)cc21 (stereo unspecified) needs its TGI filled in; supply it.
Found: > 100 µM

Lookup: Identify measured TGI associated with CN1CCN(CCNc2ccc(CO)c3sc4ccccc4c(=O)c23)CC1
Found: 14.7 µM

Lookup: # return recorded TGI for input O=C(O)/C(=C\c1ccccc1Cl)S(=O)(=O)c1ccccc1
Found: > 100 µM

Lookup: Report TGI for CCSC1=N/C(=C/c2ccccc2O)C(=O)N1
Found: > 100 µM

Lookup: For the compound COC(=O)CCc1cccnc1/C=N/O , give its measured TGI value.
Found: > 100 µM

Lookup: Please look at this compound and report its TGI: N#C/C(N)=C(\C#N)N=Cc1csc2ccccc12
Found: > 100 µM

Lookup: # return recorded TGI for entry CC(=O)NC(CCCNC(=O)NCCCl)C(=O)NCc1ccccc1 (stereo unspecified)
Found: > 100 µM

Lookup: Read the entry COc1cc2ccc1OCc1cccc(n1)COc1ccc(cc1OC)C=Nc1ccc(cc1)-c1ccc(cc1)N=C2 and write its reported TGI.
Found: > 100 µM

----------
Recorded TGI, one value per entry.
tested on: NCI-H23 lung; assay: NCI tumour cell line growth inhibition, 48 h
Report the value in µM with no unit label.

COc1ccc(N2C(=O)[C@@H]3[C@H](C2=O)c2[nH]c4ccccc4c2C2CCC(C(C)(C)C)C[C@@H]23)cc1 (some centres undefined); 66.4
O=C(Nc1ccc(Cl)cc1)c1cc(S(=O)(=O)Nc2nnc(-c3ccccc3)c(-c3ccccc3)n2)c(SCc2ccccc2)cc1Cl; 53.7
CC(=O)c1ccc2c(c1)N(CCCN1CCN(CCO)CC1)c1ccccc1C2; 30.1
OCC#Cc1ccccc1C#Cc1ccc(C#Cc2ccccc2C#CCO)s1; 33.4

Please find the next molecule below.
Lookup: Please report the measured TGI for COc1ccc2c(c1)cn1c3ccc(O)cc3[nH]c(=O)c21
Found: 15.5
